target: human mGluR4 (Homo sapiens); assay: potentiation of human mGluR4 in transfected CHO cells, Ca2+-sensitive dye fluorescence, EC20 agonist; conditions: CHO, read-out: % Glu Max
Below, each entry is listed with its recorded Emax.
Property name: Emax (%)

[[record]]
smiles = "O=C(Nc1ccn(S(=O)(=O)Cc2ccccc2)c1)c1cscn1"
test_system = "human mGluR4 (Homo sapiens)"
measured_number = 129

[[record]]
smiles = "N#Cc1cccc(CS(=O)(=O)n2ccc(NC(=O)c3ccccn3)c2)c1"
test_system = "human mGluR4 (Homo sapiens)"
measured_number = 141

[[record]]
smiles = "O=C(Nc1ccn(S(=O)(=O)Cc2ccccc2)c1)c1cccc(F)n1"
test_system = "human mGluR4 (Homo sapiens)"
measured_number = 76

[[record]]
smiles = "COc1cccc(C(=O)Nc2ccn(S(=O)(=O)Cc3ccccc3)c2)c1"
test_system = "human mGluR4 (Homo sapiens)"
measured_number = 39

[[record]]
smiles = "O=C(Nc1ccn(S(=O)(=O)Cc2ccccc2)c1)c1cc(F)ccn1"
test_system = "human mGluR4 (Homo sapiens)"
measured_number = 35


----------
biological target: human mGluR4 (Homo sapiens, UniProt Q14833); assay: potentiation of human mGluR4 in transfected CHO cells, Ca2+-sensitive dye fluorescence, EC20 agonist; settings: hEC50, human mGluR4 potentiation; unit inferred
Sequence (Q14833 33-912): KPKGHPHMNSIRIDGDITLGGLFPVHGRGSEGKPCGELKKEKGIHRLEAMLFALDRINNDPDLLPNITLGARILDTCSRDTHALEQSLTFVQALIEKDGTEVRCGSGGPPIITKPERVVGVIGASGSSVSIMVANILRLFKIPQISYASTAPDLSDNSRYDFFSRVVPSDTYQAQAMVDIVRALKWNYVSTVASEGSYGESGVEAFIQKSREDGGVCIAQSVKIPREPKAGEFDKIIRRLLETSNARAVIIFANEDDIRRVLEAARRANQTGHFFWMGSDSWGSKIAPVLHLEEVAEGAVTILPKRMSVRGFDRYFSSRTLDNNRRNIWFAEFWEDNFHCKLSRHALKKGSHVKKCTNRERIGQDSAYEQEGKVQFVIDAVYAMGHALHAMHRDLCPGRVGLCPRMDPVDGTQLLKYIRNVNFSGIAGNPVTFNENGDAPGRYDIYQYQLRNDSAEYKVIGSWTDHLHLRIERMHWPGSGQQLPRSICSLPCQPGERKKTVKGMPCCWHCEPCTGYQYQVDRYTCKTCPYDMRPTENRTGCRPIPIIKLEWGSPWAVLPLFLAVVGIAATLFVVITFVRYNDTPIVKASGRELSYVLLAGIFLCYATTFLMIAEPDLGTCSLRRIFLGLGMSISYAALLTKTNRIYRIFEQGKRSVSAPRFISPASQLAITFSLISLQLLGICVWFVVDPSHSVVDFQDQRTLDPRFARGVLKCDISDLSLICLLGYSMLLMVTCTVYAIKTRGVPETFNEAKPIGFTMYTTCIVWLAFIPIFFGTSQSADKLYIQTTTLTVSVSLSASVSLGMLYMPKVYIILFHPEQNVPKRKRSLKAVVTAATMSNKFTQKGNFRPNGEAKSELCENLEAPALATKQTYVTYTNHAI
pEC50: −log10 of the molar value.
Property name: pEC50

[[record]]
smiles = "COc1cccc(S(=O)(=O)n2ccc(NC(=O)c3ccccn3)c2)c1"
test_system = "human mGluR4 (Homo sapiens, UniProt Q14833)"
property_name = "pEC50"
measured_number = 6.64

[[record]]
smiles = "O=C(Nc1ccn(S(=O)(=O)c2ccc3c(c2)OCCCO3)c1)c1ccccn1"
test_system = "human mGluR4 (Homo sapiens, UniProt Q14833)"
property_name = "pEC50"
measured_number = 7.39

[[record]]
smiles = "O=C(Nc1ccn(S(=O)(=O)c2ccccc2OC(F)F)c1)c1ccccn1"
test_system = "human mGluR4 (Homo sapiens, UniProt Q14833)"
property_name = "pEC50"
measured_number = 6.24

[[record]]
smiles = "O=C(Nc1ccn(S(=O)(=O)c2ccc(CCl)cc2)c1)c1ccccn1"
test_system = "human mGluR4 (Homo sapiens, UniProt Q14833)"
property_name = "pEC50"
measured_number = 6.65

[[record]]
smiles = "Cc1cc(S(=O)(=O)n2ccc(NC(=O)c3ccccn3)c2)ccc1Cl"
test_system = "human mGluR4 (Homo sapiens, UniProt Q14833)"
property_name = "pEC50"
measured_number = 6.35

[[record]]
smiles = "Cc1cc(S(=O)(=O)n2ccc(NC(=O)c3ccccn3)c2)c(F)cc1Cl"
test_system = "human mGluR4 (Homo sapiens, UniProt Q14833)"
property_name = "pEC50"
measured_number = 6.46

[[record]]
smiles = "O=C(Nc1ccn(S(=O)(=O)c2cc(F)c(F)cc2F)c1)c1ccccn1"
test_system = "human mGluR4 (Homo sapiens, UniProt Q14833)"
property_name = "pEC50"
measured_number = 6.65

[[record]]
smiles = "O=C(Nc1ccn(S(=O)(=O)Cc2cccc(F)c2)c1)c1nccs1"
test_system = "human mGluR4 (Homo sapiens, UniProt Q14833)"
property_name = "pEC50"
measured_number = 5.32

[[record]]
smiles = "O=C(Nc1ccn(S(=O)(=O)Cc2ccc(F)cc2Cl)c1)c1nccs1"
test_system = "human mGluR4 (Homo sapiens, UniProt Q14833)"
property_name = "pEC50"
measured_number = 6.88

[[record]]
smiles = "Cc1cc(F)ccc1S(=O)(=O)n1ccc(NC(=O)c2ccccn2)c1"
test_system = "human mGluR4 (Homo sapiens, UniProt Q14833)"
property_name = "pEC50"
measured_number = 6.95

[[record]]
smiles = "COc1ccc(S(=O)(=O)n2ccc(NC(=O)c3ccccn3)c2)cc1OC"
test_system = "human mGluR4 (Homo sapiens, UniProt Q14833)"
property_name = "pEC50"
measured_number = 5.24

[[record]]
smiles = "O=C(O)c1ccc(S(=O)(=O)n2ccc(NC(=O)c3ccccn3)c2)cc1"
test_system = "human mGluR4 (Homo sapiens, UniProt Q14833)"
property_name = "pEC50"
measured_number = 5.20

[[record]]
smiles = "Cc1ccc(S(=O)(=O)n2ccc(NC(=O)c3ccccn3)c2)cc1F"
test_system = "human mGluR4 (Homo sapiens, UniProt Q14833)"
property_name = "pEC50"
measured_number = 6.98

[[record]]
smiles = "O=C(Nc1ccn(S(=O)(=O)c2ccc(Cl)s2)c1)c1ccccn1"
test_system = "human mGluR4 (Homo sapiens, UniProt Q14833)"
property_name = "pEC50"
measured_number = 5.98

[[record]]
smiles = "O=C(Nc1ccn(S(=O)(=O)c2ccc3c(c2)OCO3)c1)c1ccco1"
test_system = "human mGluR4 (Homo sapiens, UniProt Q14833)"
property_name = "pEC50"
measured_number = 5.71

[[record]]
smiles = "O=C(Nc1ccn(S(=O)(=O)Cc2ccccc2Cl)c1)c1ccc(Cl)cn1"
test_system = "human mGluR4 (Homo sapiens, UniProt Q14833)"
property_name = "pEC50"
measured_number = 5.14

[[record]]
smiles = "O=C(Nc1ccn(S(=O)(=O)c2cccnc2Cl)c1)c1ccccn1"
test_system = "human mGluR4 (Homo sapiens, UniProt Q14833)"
property_name = "pEC50"
measured_number = 5.42

[[record]]
smiles = "O=C(Nc1ccn(S(=O)(=O)Cc2ccccc2Cl)c1)c1ncccc1F"
test_system = "human mGluR4 (Homo sapiens, UniProt Q14833)"
property_name = "pEC50"
measured_number = 5.16


Cited source for all entries: patent US20130040944A1
